# Test system: SK-BR-3
# run description: normalised response (% of control), CellTiter-Glo; higher = more viable cells (100 = DMSO, 0 = benzethonium chloride kill control)
# condition parameters: incubation time: 72 h
recorded metric: normalised response (%)
Numbers only, in %.

// each listed molecule needs a value for normalised response
1. Cc1c(Cn2c(C)nc3c(C(=O)O)cc(N4CCOCC4)cc32)cccc1C(F)(F)F (10000 nM)
2. Nc1ccccc1NC(=O)c1ccc(CNc2nccc(-c3cccnc3)n2)cc1 [Mocetinostat] (10000 nM)
3. C[C@]12O[C@H](C[C@]1(O)CO)n1c3ccccc3c3c4c(c5c6ccccc6n2c5c31)CNC4=O [Lestaurtinib] (1000 nM)
4. CC/C(=C(\c1ccc(O)cc1)c1ccc(OCCN(C)C)cc1)c1ccccc1 [4-hydroxytamoxifen] (10000 nM)

Reply:
1: 98.3; 2: 1.68; 3: 29.1; 4: 49.8
